Test system: Genomic double stranded DNA (salmon)
Assay: Fluorescence intercalator displacement (FID) assay, SYBR-safe probe
Details: 20 μM compound, 30° C., lower % = stronger binding
Measured % Normalised Fluorescence with gDNA accompanies every entry in the list below.
measured_parameter: % Normalised Fluorescence with gDNA

# molecule, experimental_target, observed
rows = [
    ("N=C(N)CCNC(=O)c1cc(NC(=O)c2cc(NC(=O)c3ccc(/C=C/c4ccc5nonc5c4)cc3)c[nH]2)c[nH]1 [IIIa8]", "Genomic double stranded DNA (salmon)", "31%"),
    ("CN(C)CCCN(CCCN(C)C)C(=O)c1cc(NC(=O)c2cc(NC(=O)c3ccc(/C=C/c4cnc5ccccc5c4)cc3)cn2C)cn1C [IVa9]", "Genomic double stranded DNA (salmon)", "3%"),
    ("Cn1cc(NC(=O)c2cc(NC(=O)c3ccc(/C=C/c4cnc5ccccc5c4)cc3)cn2C)cc1C(=O)NCCC(=N)N1CCOCC1 [Ib5]", "Genomic double stranded DNA (salmon)", "22%"),
    ("C/N=C(/CCNC(=O)c1cc(NC(=O)c2cc(NC(=O)c3ccc(/C=C/c4ccc5nonc5c4)cc3)cn2C)cn1C)NC [Ia6]", "Genomic double stranded DNA (salmon)", "3%"),
    ("Cn1cc(NC(=O)c2ccc(/C=C/c3ccc4nonc4c3)cc2)cc1C(=O)Nc1c[nH]c(C(=O)NCCC(=N)N)c1 [IIIa3]", "Genomic double stranded DNA (salmon)", "27%"),
    ("[H]/N=C(\\CCNC(=O)c1cc(NC(=O)c2cc(NC(=O)c3ccc(C=Cc4ccc5nonc5c4)cc3)cn2C)cn1C)NCCCN(C)C [Ia46]", "Genomic double stranded DNA (salmon)", "10%"),
    ("CN(C)c1ccc(/C=C/c2ccc(C(=O)Nc3c[nH]c(C(=O)Nc4cc(C(=O)NCCN5CCOCC5)n(C)c4)c3)cn2)cc1 [IIIb2]", "Genomic double stranded DNA (salmon)", "31%"),
    ("CCCCCCC/N=C(\\CCNC(=O)c1cc(NC(=O)c2cc(NC(=O)c3ccc(/C=C/c4ccc(N(C)C)cc4)nc3)cn2C)cn1C)NCCCCCCC [Ia33]", "Genomic double stranded DNA (salmon)", "49%"),
    ("CCCCCCC/N=C(/CCNC(=O)c1cc(NC(=O)c2cc(NC(=O)c3ccc(/C=C/c4cnc5ccccc5c4)cc3)cn2C)cn1C)NCCCCCCC [Ia37]", "Genomic double stranded DNA (salmon)", "16%"),
    ("N=C(N)CCNC(=O)c1cc(NC(=O)c2cc(NC(=O)c3ccc(/C=C/c4cnc5ccccc5c4)cc3)c[nH]2)c[nH]1 [IIIa6]", "Genomic double stranded DNA (salmon)", "18%"),
    ("C/N=C(/CCNC(=O)c1cc(NC(=O)c2cc(NC(=O)c3ccc(/C=C/c4cnc5ccccc5c4)cc3)cn2C)cn1C)NC [Ia10]", "Genomic double stranded DNA (salmon)", "8%"),
    ("[H]/N=C(\\CCNC(=O)c1cc(NC(=O)c2cc(NC(=O)c3ccc(C=Cc4ccc5nonc5c4)cc3)cn2C)cn1C)N1CCSCC1 [Ib8]", "Genomic double stranded DNA (salmon)", "15%"),
    ("Cn1cc(NC(=O)c2cc(NC(=O)c3ccc(/C=C/c4cnc5ccccc5c4)cc3)cn2C)cc1C(=O)NCCCCN1CCCC1 [IVa12]", "Genomic double stranded DNA (salmon)", "50%"),
    ("[H]/N=C(\\CCNC(=O)c1cc(NC(=O)c2cc(NC(=O)c3ccc(C=Cc4ccc(C#N)cc4)cc3)cn2C)cn1C)NC(C)C [Ia17]", "Genomic double stranded DNA (salmon)", "13%"),
]
